# TEST TARGET: T1, Human B7H4 ECD (SV), splice variant, 10His_FLAG (human)
# T1 construct: also called B7-H4-SV
# TEST DETAILS: Octet BLI, hIgG1-TM on Protein G (n = 4-7)
READOUT KIND: pKd
FYI, pKd means -log10 of a concentration in mol per litre.

What pKd value was documented for this binder, ZY0EO5-E07 human IgG1-TM (antibody, V domains shown, also called ZY0E05-E07; E05-E07) VH: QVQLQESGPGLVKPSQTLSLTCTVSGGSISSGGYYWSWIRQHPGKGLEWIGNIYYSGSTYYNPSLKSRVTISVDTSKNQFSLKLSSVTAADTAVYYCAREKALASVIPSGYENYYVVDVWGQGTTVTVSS VL: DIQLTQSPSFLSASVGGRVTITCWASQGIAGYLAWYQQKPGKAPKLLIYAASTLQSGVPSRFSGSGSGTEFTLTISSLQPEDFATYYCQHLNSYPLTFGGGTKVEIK ?
6.58
